Tested on: SF-295 CNS
protocolNotes: NCI tumour cell line growth inhibition, 48 h
Below, each entry is listed with its recorded TGI.

| molecule | TGI |
| --- | --- |
| NNC(=O)c1ccccc1Nc1nc(-c2cccs2)nc2ccc(Br)cc12 | > 100 µM |
| O=S1OC[C@H](CCCl)O1 (some centres not stated) | > 100 µM |
| COc1ccc(/C=C2\COc3ccc(O)c(O)c3C2=O)cc1 | > 100 µM |
| Nc1nc(N)c2ncn(CCCC(c3ccccc3)P(=O)(O)O)c2n1 (configuration not stated) | > 100 µM |
| COc1cc(S(=O)(=O)Nc2nc(-c3ccc(N4C(=O)/C(=C\c5cccs5)N=C4c4ccccc4)cc3)cs2)ccc1Cl | > 100 µM |
| CCCCNC(=O)c1cc(S(=O)(=O)n2cc[nH]c2=O)c(SC)cc1Cl | > 100 µM |
| CC(=O)OC12c3ccccc3C1CCCC21OCCCO1 (configuration not stated) | > 100 µM |
| CC(=O)OC1C[C@@H](C)C2(CC(c3ccoc3)OC2=O)C2CCC(O)C3(CO3)C12CO (some centres not stated) | > 100 µM |
| C=CCCCCNC(=O)C[C@@H]1C2=C(CC[C@H]1O[Si](C)(C)C(C)(C)C)N1C(=O)CCC/C=C\C1C2 (some centres not stated) | 30.2 µM |
| O=[N+]([O-])c1nccn1COCCO | > 100 µM |
| Cc1ccc(S(=O)(=O)C(CC(NC=O)S(=O)(=O)c2ccc(C)cc2)NC=O)cc1 (configuration not stated) | > 100 µM |
| O=c1ccccc(-c2ccc(Br)cc2)c1O | 16.8 µM |
| ONCCCn1cnc2c(NC3CC3)ncnc21 | > 100 µM |
| O=C(O)c1ccc(NCc2nc3cc(Cl)c(Cl)cc3[nH]2)cc1 | > 100 µM |
| Nc1ccccc1Nc1ccccc1C(=O)[O-].Nc1ccccc1Nc1ccccc1C(=O)[O-].[Ni+2] | > 100 µM |
| O=C(CN(/C=C/C(=O)C(F)(F)F)c1ccc(Cl)cc1)c1ccc(F)cc1 | 34.1 µM |
| COc1ccc(C2SC(N)=Nc3c2c(C)nn3C(=O)Cc2ccccc2)cc1 (configuration not stated) | > 100 µM |
| Cc1cccc2c(NCCCN(C)C)c3c([N+](=O)[O-])ccc(C)c3nc12 | 0.451 µM |
| COc1ccc2c(c1OC)-c1c(c3ccc([N+](=O)[O-])cc3c(=O)n1CCCN)C2=O | 11.5 µM |
| Nn1c(SCC(=O)O)nc2ccccc2c1=O | > 100 µM |
| O=[N+]([O-])c1ccc(C2CC(c3ccc(NCc4nc5ccccc5[nH]4)cc3)=NO2)cc1 (configuration not stated) | > 100 µM |
| Cc1ccc(C(=O)Nc2ccc(S(=O)(=O)O)c3cc(S(=O)(=O)O)cc(S(=O)(=O)O)c23)cc1N | > 100 µM |
| COC1=CC(=O)c2c(cc(COP(N)(=O)N(CCBr)CCBr)n2C)C1=O (configuration not stated) | 0.225 µM |
| S=c1[nH]nc(-c2ccccc2)n1/N=C\c1ccc(-c2ccc(Cl)cc2)o1 | > 100 µM |
| N#CC(C#N)=C1NN=C(Cl)c2ccccc21 | > 100 µM |
| c1ccc2c(c1)Oc1cccc3cccc-2c13 | > 100 µM |
| CC1(C)Oc2ccccc2OC1O (configuration not stated) | > 100 µM |
| O=c1oc2ccc(Cl)cc2c2ccccc12 | > 100 µM |
| COc1cc2nn(-c3ccccc3)nc2c2nonc12 | > 100 µM |
| CCC1=C(C(C)=O)[C@@H]2CCCCC(C(=O)OC)[C@@H]2C1=O (some centres not stated) | > 100 µM |
| c1ccc2nc(N/N=C3\CCCCC3C3CCCCC3)ccc2c1 (configuration not stated) | 11.8 µM |
| NCCCCCn1c2c(c3ccccc3c1=O)C(=O)c1ccccc1-2 | 6.38 µM |
| COC(=O)/C=C1/SC(=Nc2ccc(F)cc2)N(CCc2c[nH]c3ccc(O)cc23)C1=O | 41.3 µM |
| Cc1cccc2nc3cccc(C(=O)NCCC[N+](C)(CCCNC(=O)c4cccc5nc6cccc(C)c6nc45)Cc4ccc([N+](=O)[O-])n4C)c3nc12 | > 100 µM |
| S=C(Nc1ccccc1)c1ccc(CN2CCCCC2)s1 | 37.5 µM |
| Nc1c(C(=O)c2cccc(OC[C@@H](O)CO)c2)cnn1-c1ccc(F)cc1 | > 25 µM |
| OC(COc1cccc2ccccc12)CN1CCOCC1 (configuration not stated) | > 100 µM |
| O=C(c1ccccc1)c1ccc2cccc(OC3OC(CO)C(O)C(O)C3O)c2n1 (configuration not stated) | > 100 µM |
| O=C(Nc1nnc(-c2ccc(Cl)cc2)o1)C(SC(=S)N1CCCCC1)c1ccccc1 (configuration not stated) | > 100 µM |
| Nc1nc(Cl)c(N=Nc2ccc(Cl)cc2)c(NCC2(CO)CCC(CCc3ccccc3)C2)n1 (configuration not stated) | 25.7 µM |
| CN(CCCNC(=O)c1nn(-c2ccccc2)c2c1ccc1ccccc12)CCCNC(=O)c1nn(-c2ccccc2)c2c1ccc1ccccc12 | 3.69 µM |
| [2H]c1nc(C)nc([2H])c1-c1cc(NC[C@@H](C)c2cccc3c(C(=O)NC)ccnc23)ncn1 | > 100 µM |
